This listing pairs compounds with measured Population Fragmented Nuclei (%).
Tested on: Fibroblast
Assay: Multiplex assay against human fibroblast
Format: toxicity, cell-based
Settings: 12 h, 1 µM, compound concentration 1 uM, replicate 1
experimental_endpoint: Population Fragmented Nuclei (%)

>>> df
                                   compound  value
0  CC(C)NC(=O)N1CC[C@H](NC2=Nc3cc(F)ccc3N(CC(F)F)c3ccc(Cl)cc32)C1    27%
1  CC(C)OC(=O)N1CCC(Oc2ncnc3c2cnn3-c2ccc(S(C)(=O)=O)cc2F)CC1    27%
2  Cc1nc(N2CC[C@H](O)C2)ncc1-c1cc(C(F)(F)F)cc2[nH]ncc12    32%
3  COc1ccc(-c2ccc3ncc4c(c3c2)n(-c2ccc(N3CCNCC3)c(C(F)(F)F)c2)c(=O)n4C)cn1.O=C(O)/C=C\C(=O)O    34%
4  COc1cc2ncn(-c3cc(OCc4ccccc4C(F)(F)F)c(C(N)=O)s3)c2cc1OC [GW843682X]    29%
5  C=CC(=O)Nc1ccc2[nH]c(=O)n(C3CCN(Cc4ccc(-c5nc6cc[nH]c(=O)c6cc5-c5ccccc5)cc4)CC3)c2c1    31%

* * *

Tested on: U2OS
Experiment: Multiplex assay against U2OS
Format: toxicity, cell-based
Settings: human, 12 h, 10 µM, compound concentration 10 uM, replicate 1
experimental_endpoint: Total Cell Count

                                    compound  value
 0  O=c1[nH]c2ccccc2n1C1CCN(Cc2ccc(-c3[nH]c4cc5ncnc5cc4nc3-c3ccccc3)cc2)CC1    173
 1  C=CC(=O)Nc1cccc(Sc2nc(Nc3ccc(N4CCN(C)CC4)cc3)ncc2Cl)c1    175
 2  Cc1ccc(C)c(Oc2ccncc2C(=O)N2CCN(C3CC3)c3ccccc32)c1    132
 3  Cc1ccc2c(c1)c1c(n2CCc2ccc(C)nc2)CCN(C)C1 [LATREPIRDINE]    142
 4  COc1ccccc1CN[C@H]1C2CCN(CC2)[C@H]1C(c1ccccc1)c1ccccc1 [CP-96345]    127
 5  C=CC(=O)Nc1cccc(Oc2nc(Nc3ccc(N4CCN(C)CC4)cc3OC)ncc2Cl)c1    152
 6  CC(C)OC(=O)N1CCC(Oc2ncnc3c2cnn3-c2ccc(S(C)(=O)=O)cc2F)CC1    221
 7  COc1ccc(-c2ccc3ncc4c(c3c2)n(-c2ccc(N3CCNCC3)c(C(F)(F)F)c2)c(=O)n4C)cn1.O=C(O)/C=C\C(=O)O [BGT-226]    258
 8  CC(C)CC(=O)Nc1[nH]nc2c1CN(C(=O)C1CCN(C)CC1)C2(C)C [PHA-793887]    188
 9  CC(C)NC(=O)N1CC[C@H](NC2=Nc3cc(F)ccc3N(CC(F)F)c3ccc(Cl)cc32)C1     96
10  CNC(=O)Nc1ccc(-c2nc(N3CC4CCC(C3)O4)c3cnn(C4CCC5(CC4)OCCO5)c3n2)cc1     66
11  CC(C)c1noc(N2CCC(COc3ccc(-c4ccc(S(C)(=O)=O)cc4)nc3)CC2)n1 [GSK-1292263]    141
12  Cc1nc(N2CC[C@H](O)C2)ncc1-c1cc(C(F)(F)F)cc2[nH]ncc12    158
13  C=CC(=O)Nc1ccc2[nH]c(=O)n(C3CCN(Cc4ccc(-c5nc6cc[nH]c(=O)c6cc5-c5ccccc5)cc4)CC3)c2c1 [Borussertib]    190
14  CC1=C(C(=O)Nc2cc3cn[nH]c3cc2F)C(c2ccc(C(F)(F)F)cc2)CC(=O)N1 (stereo not given)    223
15  CCCSc1nc(N[C@@H]2C[C@H]2c2ccc(F)c(F)c2)c2nnn([C@@H]3C[C@H](OCCO)[C@@H](O)[C@H]3O)c2n1 [TICAGRELOR]    125
16  Cc1ccccc1C(c1ccccc1C)N1C2CCC1CC(O)(c1ccccc1)C2 (stereo not given)    158
17  CCc1ccc(OCc2ccccc2C(=O)Nc2ccc3nc(C)cc(N)c3c2)cc1.Cl    129
18  COc1cc2ncn(-c3cc(OCc4ccccc4C(F)(F)F)c(C(N)=O)s3)c2cc1OC [GW843682X]    185
19  Cc1c[nH]c2nccc(Oc3c(F)cc(Nc4cc(Cl)nc(N)n4)cc3F)c12 [BAY-549]    136
20  CCc1nn(CCCN2CCN(c3cccc(Cl)c3)CC2)c(=O)n1CCOc1ccccc1.Cl [NEFAZODONE HYDROCHLORIDE]    150
21  O=C(c1cc2c(cc1F)OC(c1ccc(F)cc1)(c1ccc(Cl)cc1Cl)O2)N1CCOCC1 (stereo not given)    116
22  CNC(=O)Nc1ccc2c(c1)[C@@]1(CC2)OC(=O)N(CC(=O)N(Cc2ccc(F)cc2)[C@@H](C)C(F)(F)F)C1=O [A-486]    201
23  CC(C)Oc1ccccc1C(=O)Nc1ccccc1C(=O)Nc1cccc(S(=O)(=O)C(F)(F)F)c1    142
24  O=c1cc(N2CCOCC2)oc2c(-c3cccc4c3sc3ccccc34)cccc12    190
25  C[C@]12CC[C@@H]3c4ccc(O)cc4CC[C@H]3[C@@H]1CC[C@@H]2O [ESTRADIOL]    113
26  CN1CCN(Cc2ccc(Nc3ncc(Cl)c(Nc4ccccc4S(=O)(=O)N(C)C)n3)cc2)CC1 [DUBERMATINIB]    140
27  COc1cc(Nc2nccc(-c3cnn4nc(OC)ccc34)n2)cc(C(F)(F)F)c1    192
28  COC(=O)C1=C(C)NC(C)=C(C(=O)OCCCN2CCC(c3ccccc3)(c3ccccc3)CC2)[C@H]1c1cccc([N+](=O)[O-])c1 [NIGULDIPINE]    122
29  Cl.O=C(O)c1cc(-c2ccc(C3CCNCC3)cc2)c2ccc(-c3ccc(C(F)(F)F)cc3)cc2c1    181

* * *

// values below are reported Population Normal (%)
Tested on: HEK-293T
Assay: Multiplex assay against HEK293T
Format: toxicity, cell-based
Conditions: human, 12 h, 10 µM, compound concentration 10 uM, replicate 2
experimental_endpoint: Population Normal (%)

>>> print(df.to_string())
                                    compound  value
 0  CCc1ccc(OCc2ccccc2C(=O)Nc2ccc3nc(C)cc(N)c3c2)cc1.Cl     64
 1  C[C@]12CC[C@@H]3c4ccc(O)cc4CC[C@H]3[C@@H]1CC[C@@H]2O [ESTRADIOL]     94
 2  Cc1ccc(C)c(Oc2ccncc2C(=O)N2CCN(C3CC3)c3ccccc32)c1     93
 3  C=CC(=O)Nc1cccc(Oc2nc(Nc3ccc(N4CCN(C)CC4)cc3OC)ncc2Cl)c1     96
 4  COc1ccccc1CN[C@H]1C2CCN(CC2)[C@H]1C(c1ccccc1)c1ccccc1 [CP-96345]     95
 5  COC(=O)C1=C(C)NC(C)=C(C(=O)OCCCN2CCC(c3ccccc3)(c3ccccc3)CC2)[C@H]1c1cccc([N+](=O)[O-])c1 [NIGULDIPINE]     92
 6  CC(C)NC(=O)N1CC[C@H](NC2=Nc3cc(F)ccc3N(CC(F)F)c3ccc(Cl)cc32)C1     94
 7  CC(C)Oc1ccccc1C(=O)Nc1ccccc1C(=O)Nc1cccc(S(=O)(=O)C(F)(F)F)c1     95
 8  Cl.O=C(O)c1cc(-c2ccc(C3CCNCC3)cc2)c2ccc(-c3ccc(C(F)(F)F)cc3)cc2c1     83
 9  O=c1cc(N2CCOCC2)oc2c(-c3cccc4c3sc3ccccc34)cccc12     93
10  CNC(=O)Nc1ccc2c(c1)[C@@]1(CC2)OC(=O)N(CC(=O)N(Cc2ccc(F)cc2)[C@@H](C)C(F)(F)F)C1=O [A-486]     98
11  O=c1[nH]c2ccccc2n1C1CCN(Cc2ccc(-c3[nH]c4cc5ncnc5cc4nc3-c3ccccc3)cc2)CC1     86
12  COc1cc(Nc2nccc(-c3cnn4nc(OC)ccc34)n2)cc(C(F)(F)F)c1     88
13  C=CC(=O)Nc1cccc(Sc2nc(Nc3ccc(N4CCN(C)CC4)cc3)ncc2Cl)c1     96
14  CCc1nn(CCCN2CCN(c3cccc(Cl)c3)CC2)c(=O)n1CCOc1ccccc1.Cl [NEFAZODONE HYDROCHLORIDE]     86
15  CC1=C(C(=O)Nc2cc3cn[nH]c3cc2F)C(c2ccc(C(F)(F)F)cc2)CC(=O)N1 (centres undefined)     95
16  CC(C)(C)NC[C@H](O)COc1nsnc1N1CCOCC1 [TIMOLOL]     96
17  Cc1ccccc1C(c1ccccc1C)N1C2CCC1CC(O)(c1ccccc1)C2 (centres undefined)     96
18  Cc1c[nH]c2nccc(Oc3c(F)cc(Nc4cc(Cl)nc(N)n4)cc3F)c12 [BAY-549]     96
